Can you tell me activity at 3 µM for the items I'm about to list?
SUBJECT OF TEST: CYP2B6 (Homo sapiens)
Construct: from tissue; host or cells: human liver microsomes (pooled in the time-dependent assay)
Sequence (P20813 whole entry): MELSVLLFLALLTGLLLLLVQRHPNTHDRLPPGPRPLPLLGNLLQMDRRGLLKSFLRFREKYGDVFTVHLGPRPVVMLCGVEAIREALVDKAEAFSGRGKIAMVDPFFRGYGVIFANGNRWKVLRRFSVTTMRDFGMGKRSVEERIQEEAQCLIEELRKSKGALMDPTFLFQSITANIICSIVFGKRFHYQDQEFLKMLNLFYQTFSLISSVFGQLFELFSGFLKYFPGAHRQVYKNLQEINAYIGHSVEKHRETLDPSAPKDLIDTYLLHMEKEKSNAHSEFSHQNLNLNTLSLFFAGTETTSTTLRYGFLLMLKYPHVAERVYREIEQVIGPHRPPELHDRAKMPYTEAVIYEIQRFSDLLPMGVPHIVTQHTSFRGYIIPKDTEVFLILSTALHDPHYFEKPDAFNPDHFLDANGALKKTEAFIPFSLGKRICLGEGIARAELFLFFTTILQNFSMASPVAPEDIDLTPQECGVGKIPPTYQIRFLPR
ASSAY NAME: direct inhibition of CYP450 in human liver microsomes
Assay type: in vitro ADME
COND: 3 uM, % of non-inhibited control, read-out: CYP2B6 T0 % activity
Give bare numbers, in %.

molecule="[2H]c1nc([2H])n(-c2nc(C)cc(C(=O)N[C@H]3CC[C@H](OCCOC)CC3)n2)c1[2H] [Comparator Compound A, reference compound]" obs_value=103
molecule="CC(C)(O)c1ccc(NC(=O)c2nccc(-n3ccnc3)n2)cn1 [Compound 249]" obs_value=98
molecule="Cn1cncc1-c1ccnc(C(=O)Nc2ccc(C(C)(C)O)nc2)n1 [Compound 250]" obs_value=101
molecule="CO[C@H]1CC[C@H](NC(=O)c2nccc(-n3ccnc3)n2)CC1 [Compound 145]" obs_value=101

Batch request: activity at 3 µM per item, same order as input.
1. CO[C@H]1CC[C@H](NC(=O)c2cc(C3CCC(F)(F)CC3)nc(-c3cncn3C)n2)CC1 [Compound 289]
2. Cn1cncc1-c1ccnc(C(=O)N[C@H]2CC[C@H](O)CC2)n1 [Compound 256]
3. CO[C@H]1CC[C@H](NC(=O)c2cc(C3CCOCC3)nc(-c3cncn3C)n2)CC1 [Compound 199]
4. CO[C@H]1CC[C@H](NC(=O)c2cc(C3(C)COC3)nc(-c3cncn3C)n2)CC1 [Compound 295]

1. 98
2. 103
3. 95
4. 96
